Target: T1, human IL-33 (R&D Systems, #3625-IL-010/CF) (human, UniProt O95760 112-270)
T1 construct: Commercial recombinant protein; also called hIL-33; interleukin-33
T1 sequence (looked up): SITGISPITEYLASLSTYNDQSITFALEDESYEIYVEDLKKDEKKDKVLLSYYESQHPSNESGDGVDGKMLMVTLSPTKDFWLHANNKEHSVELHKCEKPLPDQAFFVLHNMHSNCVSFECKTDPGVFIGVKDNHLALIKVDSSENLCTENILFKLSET
Experiment: SPR 37C pH7.4, mAb captured
ENDPOINT LABEL: t½ (min)
Give bare numbers, in min.

Challenge: Need t½ of H4H9670P (antibody, V domains shown, Human IgG4 Fc (H4H)) VH: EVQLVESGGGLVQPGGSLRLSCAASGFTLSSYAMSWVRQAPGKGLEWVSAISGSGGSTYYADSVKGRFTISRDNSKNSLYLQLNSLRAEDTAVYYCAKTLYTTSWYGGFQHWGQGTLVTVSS VL: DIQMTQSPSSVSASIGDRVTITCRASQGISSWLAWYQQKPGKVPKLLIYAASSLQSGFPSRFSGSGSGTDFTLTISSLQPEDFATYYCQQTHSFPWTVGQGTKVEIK , thanks.
Response given: 15
